# Tested on: Escherichia coli
# Assay protocol: Antibacterial activity in vitro against Escherichia coli Vogel
# Format: functional
Metric name: MIC (µg/mL)

Compound	Experimental target	Unit string	Obs value
CCN[C@@H](C)[C@@H]1CCN(c2c(F)c(N)c3c(=O)c(C(=O)O)cn(C4CC4)c3c2F)C1 (stereo in doubt; 32H-S,R)	Escherichia coli	µg/mL	0.1
CCN[C@@H](C)[C@@H]1CCN(c2nc3c(cc2F)c(=O)c(C(=O)O)cn3C2CC2)C1	Escherichia coli	µg/mL	0.2
CC(N)C1CCN(c2c(F)cc3c(=O)c(C(=O)O)cn(C4CC4)c3c2C(F)(F)F)C1 (stereo in doubt; 36F-R,R)	Escherichia coli	µg/mL	0.8
C[C@@H](N)[C@H]1CCN(c2nc3c(cc2F)c(=O)c(C(=O)O)cn3C2CC2)C1 (mixture of isomers)	Escherichia coli	µg/mL	0.025
CN[C@H](C)[C@H]1CCN(c2c(F)c(N)c3c(=O)c(C(=O)O)cn(C4CC4)c3c2F)C1	Escherichia coli	µg/mL	0.2
C[C@@H](N)[C@H]1CCN(c2cc3c(cc2F)c(=O)c(C(=O)O)cn3C2CC2)C1	Escherichia coli	µg/mL	0.2

* * *

Below is a list of entries, each paired with its recorded PD50 value.
# System: Escherichia coli
# Assay protocol: Antibacterial activity against Escherichia coli Vogel after oral administration in mouse
# Assay type: functional

Molecule	PD50, mg/kg
C[C@@H](N)[C@H]1CCN(c2nc3c(cc2F)c(=O)c(C(=O)O)cn3C2CC2)C1 (mixture of isomers)	2
C[C@@H](N)[C@H]1CCN(c2nc3c(cc2F)c(=O)c(C(=O)O)cn3-c2ccc(F)cc2F)C1 (racemic)	3
CCN[C@@H](C)[C@@H]1CCN(c2nc3c(cc2F)c(=O)c(C(=O)O)cn3C2CC2)C1	3
CC1(CN)CCN(c2c(F)c(N)c3c(=O)c(C(=O)O)cn(C4CC4)c3c2F)C1 (stereo not given)	9
C[C@@H](N)[C@@H]1CCN(c2c(F)c(N)c3c(=O)c(C(=O)O)cn(C4CC4)c3c2F)C1	4

* * *

Entries and their measured MIC follow.
# Test system: Streptococcus pneumoniae
# Assay protocol: Minimum inhibitory concentration was evaluated in vitro against Streptococcus pneumoniae SV-1
# Format: functional

Molecule	MIC
CN[C@H](C)[C@H]1CCN(c2c(F)c(N)c3c(=O)c(C(=O)O)cn(C4CC4)c3c2F)C1 (mixture of isomers)	3 ng/mL
CCN[C@H](C)[C@H]1CCN(c2cc3c(cc2F)c(=O)c(C(=O)O)cn3C2CC2)C1 (mixture of isomers; form 2)	50 ng/mL
C[C@H](N)[C@H]1CCN(c2c(F)c(N)c3c(=O)c(C(=O)O)cn(C4CC4)c3c2F)C1 (stereo in doubt; 32F-S,R)	13 ng/mL
C[C@@H](N)[C@H]1CCN(c2nc3c(cc2F)c(=O)c(C(=O)O)cn3C2CC2)C1 (mixture of isomers)	3 ng/mL

* * *

# Tested on: Enterobacter cloacae
# Assay protocol: Minimum inhibitory concentration in vitro against Enterobacter cloacae MA 2646
# Assay type: functional
# Stated conditions: Enterobacter cloacae; read-out: MIC
Each entry below lists one item and its recorded MIC value.

Molecule	MIC, µg/mL
CCn1cc(C(=O)O)c(=O)c2cc(F)c(N3CCC(C(C)N)C3)c(OC)c21 (racemic)	0.1
CN[C@H](C)[C@H]1CCN(c2c(F)cc3c(=O)c(C(=O)O)cn(C4CC4)c3c2C(F)(F)F)C1 (mixture of isomers)	0.4
CCNCC1CCN(c2c(F)cc3c(=O)c(C(=O)O)cn(C4CC4)c3c2OC)C1 (configuration not stated)	0.1
CCN[C@H](C)[C@H]1CCN(c2c(F)cc3c(=O)c(C(=O)O)cn(C4CC4)c3c2C(F)(F)F)C1 (racemic)	0.4
CCn1cc(C(=O)O)c(=O)c2cc(F)c(N3CCC(CN)C3)c(F)c21 (configuration not stated)	0.2
COc1c(N2CC[C@H]([C@@H](C)N)C2)c(F)cc2c(=O)c(C(=O)O)cn(C3CC3)c12 (racemic)	0.05
CN[C@H](C)[C@@H]1CCN(c2c(F)cc3c(=O)c(C(=O)O)cn(C4CC4)c3c2OC)C1	0.1
CN[C@@H](C)[C@@H]1CCN(c2nc3c(cc2F)c(=O)c(C(=O)O)cn3C2CC2)C1 (mixture of isomers)	0.1
CN[C@@H](C)[C@H]1CCN(c2c(F)c(N)c3c(=O)c(C(=O)O)cn(C4CC4)c3c2F)C1	0.4
CCN[C@H](C)[C@@H]1CCN(c2c(F)cc3c(=O)c(C(=O)O)cn(C4CC4)c3c2C(F)(F)F)C1	1.6
CCn1cc(C(=O)O)c(=O)c2cc(F)c(N3CC[C@H]([C@@H](C)N)C3)c(F)c21 (mixture of isomers)	0.05
CCn1cc(C(=O)O)c(=O)c2cc(F)c(N3CCC(N)C3)c(OC)c21 (configuration not stated)	0.2
C[C@@H](N)[C@@H]1CCN(c2nc3c(cc2F)c(=O)c(C(=O)O)cn3C2CC2)C1	0.05
CN[C@H](C)[C@H]1CCN(c2cc3c(cc2F)c(=O)c(C(=O)O)cn3C2CC2)C1	0.2
CN[C@H](C)[C@@H]1CCN(c2nc3c(cc2F)c(=O)c(C(=O)O)cn3C2CC2)C1	0.1
C[C@@H](N)[C@H]1CCN(c2nc3c(cc2F)c(=O)c(C(=O)O)cn3C2CC2)C1 (racemic)	0.05
CCNCC1CCN(c2cc3c(c(N)c2F)c(=O)c(C(=O)O)cn3C2CC2)C1 (configuration not stated)	0.1

* * *

# Tested on: Klebsiella pneumoniae
# Assay protocol: Minimum inhibitory concentration was evaluated in vitro against Klebsiella pneumoniae MGH2
# Assay type: functional

Molecule	MIC
C[C@@H](N)[C@H]1CCN(c2cc3c(cc2F)c(=O)c(C(=O)O)cn3C2CC2)C1 (racemic)	0.1 µg/mL
CC(N)C1CCN(c2c(F)cc3c(=O)c(C(=O)O)cn(C4CC4)c3c2C(F)(F)F)C1 (racemic)	0.2 µg/mL
CC(N)C1CCN(c2c(F)cc3c(=O)c(C(=O)O)cn(C4CC4)c3c2C(F)(F)F)C1 (stereo in doubt; 36F-R,R)	0.8 µg/mL
CN[C@H](C)[C@H]1CCN(c2c(F)c(N)c3c(=O)c(C(=O)O)cn(C4CC4)c3c2F)C1	0.8 µg/mL

* * *

# MIC per record follows
# Test system: Streptococcus pyogenes
# Assay protocol: Minimum inhibitory concentration was evaluated in vitro against Streptococcus pyogenes C 203
# Type: functional
# Stated conditions: Streptococcus pyogenes; read-out: MIC
Metric name: MIC (µg/mL)

Compound	Metric name	Obs value
CCN[C@H](C)[C@@H]1CCN(c2nc3c(cc2F)c(=O)c(C(=O)O)cn3C2CC2)C1	MIC	0.05
CCN[C@H](C)[C@@H]1CCN(c2nc3c(cc2F)c(=O)c(C(=O)O)cn3-c2ccc(F)cc2F)C1	MIC	0.2
Nc1c(F)c(N2CCC(N)C2)cc2c1c(=O)c(C(=O)O)cn2C1CC1 (stereo not drawn)	MIC	0.05
C[C@@H](N)[C@@H]1CCN(c2nc3c(cc2F)c(=O)c(C(=O)O)cn3C2CC2)C1	MIC	0.013
COc1c(N2CC[C@H]([C@@H](C)N)C2)c(F)cc2c(=O)c(C(=O)O)cn(C3CC3)c12 (racemic)	MIC	0.003
CCN[C@H](C)[C@@H]1CCN(c2cc3c(cc2F)c(=O)c(C(=O)O)cn3C2CC2)C1	MIC	0.05
NCC1CCN(c2cc3c(cc2F)c(=O)c(C(=O)O)cn3C2CC2)C1 (stereo not drawn)	MIC	0.013
NC1CCN(c2nc3c(cc2F)c(=O)c(C(=O)O)cn3C2CC2)C1 (stereo not drawn)	MIC	0.2
CCn1cc(C(=O)O)c(=O)c2cc(F)c(N3CCC(C(C)NC)C3)c(OC)c21 (racemic)	MIC	0.013
C[C@H](N)[C@H]1CCN(c2cc3c(cc2F)c(=O)c(C(=O)O)cn3C2CC2)C1	MIC	0.1
NCC1CCN(c2nc3c(cc2F)c(=O)c(C(=O)O)cn3-c2ccc(F)cc2F)C1 (stereo not drawn)	MIC	0.025
COc1c(N2CCC(N)C2)c(F)cc2c(=O)c(C(=O)O)cn(C3CC3)c12 (stereo not drawn)	MIC	0.025
CCN[C@H](C)[C@@H]1CCN(c2c(F)c(N)c3c(=O)c(C(=O)O)cn(C4CC4)c3c2F)C1	MIC	0.003
C[C@@H](N)[C@@H]1CCN(c2cc3c(cc2F)c(=O)c(C(=O)O)cn3C2CC2)C1	MIC	0.025
CCNCC1CCN(c2nc3c(cc2F)c(=O)c(C(=O)O)cn3-c2ccc(F)cc2F)C1 (stereo not drawn)	MIC	0.1
CCn1cc(C(=O)O)c(=O)c2cc(F)c(N3CC[C@H]([C@@H](C)N)C3)c(F)c21 (mixture of isomers)	MIC	0.003
CNCC1CCN(c2cc3c(cc2F)c(=O)c(C(=O)O)cn3C2CC2)C1 (stereo not drawn)	MIC	0.05
CCN[C@H](C)[C@H]1CCN(c2c(F)cc3c(=O)c(C(=O)O)cn(C4CC4)c3c2OC)C1 (racemic)	MIC	0.006
